Tested on: PC-3 prostate
Test: NCI-60 one-dose screen, 48 h (100 = growth as untreated, 0 = no growth, -100 = all killed)
Conditions: 10 µM unless noted
Method: Growth inhibition of the PC-3 human tumor cell line is measured as a screen for anti-cancer activity. Cells are grown in 96 well plates and exposed to the test compound for 48 hours. Compounds are tested at a single concentration, which is 10^-5 M for most compounds. The reported endpoint is percent growth (GI% or GIPRCNT), where numbers from 0 - 100% represent growth inhibition, and numbers from -100% - 0 represent cell death. For example, a value of 40 represents 60% growth inhibition. […]
This is part of a sample that, as a whole, favours compounds with a hit. Of some 83,000 tested, about 20% had one in any assay.
# binning rule on growth: bin 0: < 20%; bin 1: ≥ 20% and < 90%; bin 2: ≥ 90%

Observe how each entry below is paired with its result.
>>> class("CC(C)CC1NC(C)(C)CO1 (centres undefined)")
"bin 2"
>>> class("CC(=O)Oc1csc(N(C(C)=O)c2cccc(C(F)(F)F)c2)n1")
"bin 1"
>>> class("C=C1CCC2C3(C)COC(c4c(OC)cccc4OC)OC3CCC2(C)C1C/C=C1/C(=O)OCC1O (centres undefined)")
"bin 1"
>>> class("Cn1cc(-c2cnc3ccc(NC(=O)Nc4ccc(F)c(Br)c4)cc3n2)cn1")
"bin 0"
>>> class("COC(=O)[C@]12CC[C@@H](C)[C@H](C)[C@@H]1C1=CC[C@@H]3[C@@]4(C)C(C=O)=C[C@@](C)(COC(=O)c5ccco5)[C@@H]4[C@H](O)C[C@@]3(C)[C@]1(C)CC2")
"bin 0"
>>> class("CCOC(=O)c1c(NS(=O)(=O)c2ccc(C)cc2)sc2c1CCC1(C2)OCCO1")
"bin 1"

Query block: Where would `COc1cc(NCCCCCN)c2ncccc2c1` land among the classes by reported growth?
Result block: bin 2

Query block: Where would COc1ccc2c(c1)NC1=C(C(=O)OC1)C2c1cc(OC)c2c(c1)OCO2 (centres undefined) land among the classes by reported growth?
Result block: bin 1
